- SYSTEM TESTED: TLR7 (Homo sapiens)
- Construct: Human peripheral blood mononuclear cells (PBMCs) consist of lymphocytes, monocytes and dendritic cells that express TLR7, TLR8 and TLR9; endogenous in cells; host or cells: cryopreserved human PBMCs from healthy donors
- Sequence (Q9NYK1 27-1049): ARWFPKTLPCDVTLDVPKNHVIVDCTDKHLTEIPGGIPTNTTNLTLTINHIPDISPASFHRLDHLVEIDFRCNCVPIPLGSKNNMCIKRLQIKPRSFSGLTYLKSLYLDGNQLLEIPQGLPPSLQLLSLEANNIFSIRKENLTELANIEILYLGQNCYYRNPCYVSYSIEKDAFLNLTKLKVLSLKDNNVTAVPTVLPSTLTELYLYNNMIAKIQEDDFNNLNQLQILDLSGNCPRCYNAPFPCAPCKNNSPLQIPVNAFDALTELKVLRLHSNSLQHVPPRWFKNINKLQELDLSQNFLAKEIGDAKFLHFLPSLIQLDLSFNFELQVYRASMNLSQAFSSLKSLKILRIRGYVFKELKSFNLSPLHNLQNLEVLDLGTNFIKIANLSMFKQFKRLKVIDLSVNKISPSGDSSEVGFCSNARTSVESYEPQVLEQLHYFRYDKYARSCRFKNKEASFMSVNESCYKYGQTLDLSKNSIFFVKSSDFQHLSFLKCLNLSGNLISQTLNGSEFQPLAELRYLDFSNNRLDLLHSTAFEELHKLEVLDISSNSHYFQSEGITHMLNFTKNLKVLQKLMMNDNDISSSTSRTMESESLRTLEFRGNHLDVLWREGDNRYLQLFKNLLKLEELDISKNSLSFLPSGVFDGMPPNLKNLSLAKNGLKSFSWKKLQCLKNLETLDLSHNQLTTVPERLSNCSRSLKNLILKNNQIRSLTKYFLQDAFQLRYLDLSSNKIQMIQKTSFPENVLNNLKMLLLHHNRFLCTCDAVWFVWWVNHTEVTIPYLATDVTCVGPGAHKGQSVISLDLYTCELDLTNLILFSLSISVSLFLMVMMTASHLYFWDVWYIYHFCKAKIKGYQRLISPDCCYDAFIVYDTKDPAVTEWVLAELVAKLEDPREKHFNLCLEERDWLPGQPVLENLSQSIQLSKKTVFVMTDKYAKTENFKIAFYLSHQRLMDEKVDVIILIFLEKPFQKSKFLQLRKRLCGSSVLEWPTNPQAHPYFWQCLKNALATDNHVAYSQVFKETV
- PROTOCOL TEXT: TLR7 human PBMC cell-based assay (antagonist, GS-986 stimulated cytokine release)
- CONDITION DETAILS: human PBMCs; TLR7 agonist GS-986 400 nM, 6 hours; cytokines (IL-6 and IFNα) in supernatant; read-out: TLR-7 EC50
- Excerpt: Human peripheral blood mononuclear cells (PBMCs) consist of lymphocytes, monocytes and dendritic cells that express TLR7, TLR8 and TLR9. These cells respond to TLR7, TLR8 and TLR9 ligand stimulation and produce cytokines and chemokines in vitro and in vivo. Human PBMCs are therefore suitable to be used in a cell-based assay to assess the in vitro potency of a TLR 7, 8, and/or 9 antagonist. […]
pEC50: −log10 of the molar value.
OUTCOME MEASURE: pEC50

Consider the reported pEC50 for these molecules:
Cc1cc(-c2[nH]c3cc(C(=O)N4CCN[C@H](C(F)(F)F)C4)sc3c2C(C)C)cn2ncnc12 [Example 152]; 7.04
Cc1cc(-c2[nH]c3cc(C4CCC5(CC4)CCN(CC(N)=O)CC5)sc3c2C(C)C)cn2ncnc12 [Example 290]; 9.37
Cc1cc(-c2[nH]c3cc(C4CCN(CC(N)=O)C5(CCC5)C4)sc3c2C(C)C)cn2ncnc12 (stereo not shown) [Example 301]; 7.28
Cc1nc2c(C)cc(-c3[nH]c4cc(C5CCN(CC(N)=O)CC5)sc4c3C(C)C)cn2n1 [Example 283]; 8.86

I: Cc1cc(-c2[nH]c3cc(C(=O)N4CC[C@@H](N)C4)sc3c2C(C)C)cc(C)n1 [Example 8]
II: Cc1c(-c2[nH]c3cc(-c4cnc5c(c4)CNCC5)sc3c2C(C)C)cn2ncnc2c1C [Example 222]
[ask] Problem: Given the entries I and II , determine which has the lower reported pEC50. Choose, then provide that item's label.
[reply] I
(I: 7.17, II: 8.51)

1: Cc1cc(-c2[nH]c3cc(C(=O)N4CC5CC(C4)N5)sc3c2C(C)C)cc(C)n1 [Example 18]
2: Cc1cc(-c2[nH]c3cc(-c4nnc(C5CCNCC5)s4)sc3c2C(C)C)cn2ncnc12 [Example 48]
[ask] For this pair, 1 and 2 , which shows a numerically higher pEC50? Choose, then provide that item's label.
[reply] 2
(2: 9.00, 1: 6.70)

I: Cc1cc(-c2[nH]c3cc(C(=O)N4CCN(CCO)CC4)sc3c2C(C)C)cc(C)n1 [Example 45]
II: Cc1cc(-c2[nH]c3cc(C(=O)N4CCNC(C(F)F)C4)sc3c2C(C)C)cn2ncnc12 (stereo not shown) [Example 130]
III: Cc1cc(-c2[nH]c3cc(C(=O)N(C)[C@H]4CCNC4)sc3c2C(C)C)cc(C)n1 [Example 23]
[ask] Ascending by pEC50, please: list the molecules accordingly. Answer format: the labels, ordered as requested.
[reply] I, II, III

a: Cc1cc(-c2[nH]c3cc(C(=O)N4CC[C@H](C)[C@H](N)C4)sc3c2C(C)C)cn2ncnc12 [Example 105]
b: Cc1cc(-c2[nH]c3cc(-c4cnn(C5CCNC5)c4)sc3c2C(C)C)cn2ncnc12 (stereo not shown) [Example 226]
[ask] Problem: Given the entries a and b , determine which has the lower reported pEC50. Choose, then provide that item's label.
[reply] a
(a: 8.34, b: 9.22)

I: Cc1cc(-c2[nH]c3cc(C(=O)N(C)C4CCN(CC#N)CC4)sc3c2C(C)C)cn2ncnc12 [Example 182]
II: Cc1cc(-c2[nH]c3cc(C4CCN(C(=O)[C@@H]5COCCN5)CC4)sc3c2C(C)C)cn2ncnc12 [Example 291]
III: Cc1cc(-c2[nH]c3cc(-c4nc5ccccc5[nH]4)sc3c2C(C)C)cn2ncnc12 [Example 235]
[ask] Ascending by pEC50, please: list the molecules accordingly. Answer format: the labels, ordered as requested.
[reply] III, I, II
(III: 6.96, I: 8.06, II: 9.43)
